Recorded below: pKi, system Substance-K receptor (Homo sapiens).
pKi: −log10 of the molar value.
Assay readout: pKi

Here are 5 compounds together with their reported answers.
[
  {
    "Compound": "O=C(Nc1ccc(OCc2ccc(C(F)(F)F)cc2)cc1)N[C@@H](Cc1ccccc1)C(=O)NCCCN1CCOCC1",
    "Test result": 6.10
  },
  {
    "Compound": "COc1cc(COc2ccc(NC(=O)N[C@@H](Cc3ccccc3)C(=O)NCCCN3CCOCC3)cc2)cc(OC)c1",
    "Test result": 6.70
  },
  {
    "Compound": "O=C(NCCCN1CCOCC1)[C@H](Cc1ccccc1)NC(=O)N1CCCC(O)(c2ccccc2)C1 (some centres not stated)",
    "Test result": 5.20
  },
  {
    "Compound": "CC(C)(Oc1ccccc1-c1ccccc1)C(=O)N[C@@H](Cc1ccccc1)C(=O)NCCCN1CCOCC1",
    "Test result": 5.51
  },
  {
    "Compound": "CCc1ccc(Oc2ccc(NC(=O)N[C@@H](Cc3ccccc3)C(=O)NCCCN3CCOCC3)cc2)cc1",
    "Test result": 6.70
  }
]

[I] O=C(Nc1ccc(Oc2cccc(F)c2)cc1)N[C@@H](Cc1ccccc1)C(=O)NCCCN1CCOCC1
[II] CC(C)(Oc1cccc(-c2ccccc2)c1)C(=O)N[C@@H](Cc1ccccc1)C(=O)NCCCN1CCOCC1
Query :: Field: lower pKi | Options: I / II Response format: the label of the selected entry.
Result :: II

[P] CN(Cc1ccccc1)C(=O)N[C@@H](Cc1ccccc1)C(=O)NCCCN1CCOCC1
[Q] CC(C)(Oc1ccccc1-c1ccccc1)C(=O)N[C@H](Cc1ccccc1)C(=O)NCCCN1CCOCC1
Query :: // pick min by pKi: P , Q Write down the label of the entry you select.
Result :: Q
